experimental-target: CDK9/CycTI (Homo sapiens)
measurement-protocol: In vitro kinase assay (ADP-Glo Kinase Assay Kit), CDK9/CycTI
details: 30 ng CDK9/CycTI, 30 μM CDKtide, 10 μM ATP, 2 hours at room temperature; 8 to 10-point dose response (Tier2); read-out: IC50 Score
readout-type: IC50

{"columns": ["compound", "IC50"],
 "data": [
  ["CN1CCC(C(=O)Nc2nc3ccc4cc(F)ccc4c3s2)C1 (single isomer, unassigned) [Compound 48]", "1 to 100 nM"],
  ["O=C(Nc1nc2ccc3cc(F)ccc3c2s1)[C@@H]1CCN1", "100 to 500 nM"],
  ["CC(=O)N1CCC[C@@H]1C(=O)Nc1nc2c(s1)-c1ccc(F)cc1CC2", "500 to 1000 nM"],
  ["CC(=O)N1CC[C@@H]1C(=O)Nc1nc2ccc3cc(F)ccc3c2s1", "1 to 100 nM"],
  ["CN1CCC(C(=O)Nc2nc3ccc4cc(F)ccc4c3s2)C1 (single isomer, unassigned) [Compound 70]", "1 to 100 nM"]
]}

Name the recorded IC50 for `CC(=O)N1CC(C(=O)Nc2nc3ccc4cc(F)ccc4c3s2)C1` .
100 to 500 nM

Name the recorded IC50 for `CC(C)(C)OC(=O)N[C@@H]1CC[C@H](C(=O)Nc2nc3ccc4cc(F)ccc4c3s2)C1` .
100 to 500 nM

Name the recorded IC50 for `O=C(Nc1nc2ccc3cc(F)ccc3c2s1)[C@@H]1CCCN1` .
500 to 1000 nM

###

experimental-target: CDK9/CycTI (Homo sapiens, UniProt P50750)
Sequence (P50750 whole entry): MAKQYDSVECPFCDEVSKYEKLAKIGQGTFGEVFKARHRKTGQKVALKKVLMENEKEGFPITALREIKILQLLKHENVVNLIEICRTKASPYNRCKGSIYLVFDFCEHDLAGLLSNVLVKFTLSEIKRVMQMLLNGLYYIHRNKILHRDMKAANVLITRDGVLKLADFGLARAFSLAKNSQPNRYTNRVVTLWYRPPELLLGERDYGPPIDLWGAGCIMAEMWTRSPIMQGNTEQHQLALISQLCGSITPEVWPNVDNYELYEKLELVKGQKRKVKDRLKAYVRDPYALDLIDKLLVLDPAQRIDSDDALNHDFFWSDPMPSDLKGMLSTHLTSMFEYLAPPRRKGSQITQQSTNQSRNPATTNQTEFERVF
Sequence (O60563 whole entry partner): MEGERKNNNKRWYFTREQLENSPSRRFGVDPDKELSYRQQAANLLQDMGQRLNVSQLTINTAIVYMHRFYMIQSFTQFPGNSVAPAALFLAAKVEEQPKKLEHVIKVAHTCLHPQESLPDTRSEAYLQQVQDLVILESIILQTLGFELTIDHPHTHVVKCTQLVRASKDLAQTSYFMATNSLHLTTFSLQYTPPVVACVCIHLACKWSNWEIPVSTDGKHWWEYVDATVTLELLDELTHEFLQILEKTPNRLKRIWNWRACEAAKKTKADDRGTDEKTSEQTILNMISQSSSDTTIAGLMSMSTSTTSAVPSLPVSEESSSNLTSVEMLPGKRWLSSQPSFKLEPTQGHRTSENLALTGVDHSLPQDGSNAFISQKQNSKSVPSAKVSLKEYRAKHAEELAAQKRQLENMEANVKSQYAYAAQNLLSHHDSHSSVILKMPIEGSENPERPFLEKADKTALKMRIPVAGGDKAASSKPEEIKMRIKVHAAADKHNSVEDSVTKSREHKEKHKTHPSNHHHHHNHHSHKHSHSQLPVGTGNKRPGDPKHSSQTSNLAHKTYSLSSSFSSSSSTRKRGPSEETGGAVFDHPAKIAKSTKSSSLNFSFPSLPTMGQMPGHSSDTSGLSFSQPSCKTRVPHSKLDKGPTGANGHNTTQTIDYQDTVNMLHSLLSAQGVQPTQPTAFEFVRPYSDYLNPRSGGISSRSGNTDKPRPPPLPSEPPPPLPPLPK
measurement-protocol: In vitro kinase assay (ADP-Glo Kinase Assay Kit), CDK9/CycTI
details: 30 ng CDK9/CycTI, 30 μM CDKtide, 10 μM ATP, 2 hours at room temperature; 8 to 10-point dose response (Tier2); read-out: IC50 Score
This section presents compounds with their documented IC50 values.

{"columns": ["compound", "experimental-target", "IC50"],
 "data": [
  ["CC(=O)N1CCC[C@@H](C(=O)Nc2nc3ccc4cc(F)ccc4c3s2)C1 [Compound 38]", "CDK9/CycTI (Homo sapiens, UniProt P50750)", "100 to 500 nM"],
  ["C=CC(=O)N[C@@H]1CCC[C@H](C(=O)Nc2nc3ccc4cc(F)ccc4c3s2)C1 [Compound 41]", "CDK9/CycTI (Homo sapiens, UniProt P50750)", "1 to 100 nM"],
  ["CC(C)(C)OC(=O)N1CC[C@H](C(=O)Nc2nc3ccc4cc(F)ccc4c3s2)C1 [Compound 59]", "CDK9/CycTI (Homo sapiens, UniProt P50750)", "500 to 1000 nM"],
  ["CC(=O)N1CCC(C(=O)Nc2nc3ccc4cc(F)ccc4c3s2)CC1 [Compound 86]", "CDK9/CycTI (Homo sapiens, UniProt P50750)", "1 to 100 nM"]
]}

Shifting focus to the compound that follows.
Name the recorded IC50 for O=C(CCl)N[C@@H]1CCC[C@H](C(=O)Nc2nc3ccc4cc(F)ccc4c3s2)C1 [Compound 75] .
1 to 100 nM

###

experimental-target: CDK9/CycTI (Homo sapiens)
Construct: purchased Carna biosciences 04-110
measurement-protocol: In vitro kinase assay (ADP-Glo Kinase Assay Kit), CDK9/CycTI
Type: biochemical
details: 30 ng CDK9/CycTI, 30 μM CDKtide, 10 μM ATP, 2 hours at room temperature; 8 to 10-point dose response (Tier2); read-out: IC50 Score
This section presents molecules with their documented IC50 values.

{"columns": ["molecule", "IC50"],
 "data": [
  ["CC(C)(C)OC(=O)N1CCC[C@H](C(=O)Nc2nc3ccc4cc(F)ccc4c3s2)C1", "1000 to 20000 nM"]
]}

Notebook: pull reported IC50 for CDK9/CycTI (Homo sapiens), entry `O=C1CC[C@H](C(=O)Nc2nc3ccc4cc(F)ccc4c3s2)N1`
1 to 100 nM

Notebook: pull reported IC50 for CDK9/CycTI (Homo sapiens), entry `CC(=O)N(C)[C@@H]1CCC[C@H](C(=O)Nc2nc3ccc4cc(F)ccc4c3s2)C1`
100 to 500 nM

Notebook: pull reported IC50 for CDK9/CycTI (Homo sapiens), entry CC(=O)N1CCNCC1C(=O)Nc1nc2ccc3cc(F)ccc3c2s1 (single isomer, unassigned) [Compound 18-a]
100 to 500 nM

Notebook: pull reported IC50 for CDK9/CycTI (Homo sapiens), entry `O=C1CC[C@@H](C(=O)Nc2nc3ccc4cc(F)ccc4c3s2)N1`
1 to 100 nM

Notebook: pull reported IC50 for CDK9/CycTI (Homo sapiens), entry `CC(C)(C)OC(=O)N1CC[C@H]1C(=O)Nc1nc2ccc3cc(F)ccc3c2s1`
1000 to 20000 nM

###

experimental-target: CDK9/CycTI (Homo sapiens, UniProt P50750)
measurement-protocol: In vitro kinase assay (ADP-Glo Kinase Assay Kit), CDK9/CycTI
details: 30 ng CDK9/CycTI, 30 μM CDKtide, 10 μM ATP, 2 hours at room temperature; 8 to 10-point dose response (Tier2); read-out: IC50 Score
pIC50: −log10 of the molar value.
This section presents molecules with their documented pIC50 values.

Example cases with answers are listed next.
{"columns": ["smiles-representation", "pIC50"],
 "data": [
  ["O=C(Nc1nc2ccc3cc(F)ccc3c2s1)[C@H]1CCN1", "6.00 to 6.30"],
  ["CC(=O)N[C@@H]1CCC[C@H](C(=O)Nc2nc3ccc4cc(F)ccc4c3s2)C1", "7.00 to 9.00"],
  ["CC(=O)N1CCC[C@@H]1C(=O)Nc1nc2ccc3cc(F)ccc3c2s1", "7.00 to 9.00"],
  ["O=C1CC[C@@H](C(=O)Nc2nc3ccc4ccccc4c3s2)N1", "7.00 to 9.00"],
  ["CC(C)(C)OC(=O)N[C@H]1CCC[C@H](C(=O)Nc2nc3ccc4cc(F)ccc4c3s2)C1", "6.00 to 6.30"]
]}

Name the recorded pIC50 for `CC(=O)N[C@H]1CCC[C@H](C(=O)Nc2nc3ccc4cc(F)ccc4c3s2)C1` .
7.00 to 9.00

Name the recorded pIC50 for `O=C(Nc1nc2ccc3cc(F)ccc3c2s1)c1ccno1` .
4.70 to 6.00

Name the recorded pIC50 for `CN[C@@H]1CC[C@H](C(=O)Nc2nc3ccc4cc(F)ccc4c3s2)C1` .
7.00 to 9.00

Name the recorded pIC50 for `CC(=O)N1CCC[C@@H]1C(=O)Nc1nc2ccc3cc(Cl)ccc3c2s1` .
7.00 to 9.00

Name the recorded pIC50 for `CC(C)(C)OC(=O)N1CC[C@@H]1C(=O)Nc1nc2ccc3cc(F)ccc3c2s1` .
4.70 to 6.00

Name the recorded pIC50 for `CS(=O)(=O)N1CCC[C@@H]1C(=O)Nc1nc2ccc3cc(F)ccc3c2s1` .
7.00 to 9.00

###

This section presents compounds with their documented IC50 values.
experimental-target: CDK9/CycTI (Homo sapiens, UniProt P50750)
measurement-protocol: In vitro kinase assay (ADP-Glo Kinase Assay Kit), CDK9/CycTI
details: 30 ng CDK9/CycTI, 30 μM CDKtide, 10 μM ATP, 2 hours at room temperature; 8 to 10-point dose response (Tier2); read-out: IC50 Score
Experimental: In vitro kinase assay was performed in white, 384-low volume plates in 5 μl reaction volume consisting of 30 ng CDK9/CycTI (Carna biosciences #04-110), 30 μM CDKtide (Signalchem #C06-58) and 10 μM ATP made in reaction buffer (40 mM Tris, pH 7.5; 20 mM MgCl2; 0.1 mg/ml BSA; 50 μM DTT) at 1 μM & 10 μM compound concentration for Tier1 assay and 8 to 10-point dose response curve for Tier2 assay. […]

Example cases with answers are listed next.
{"columns": ["compound", "IC50"],
 "data": [
  ["O=C(Nc1nc2ccc3cc(F)ccc3c2s1)C1CCNC1 (single isomer, unassigned) [Compound 37]", "0.001 to 0.1 µM"],
  ["O=C(Nc1nc2ccc3cc(F)ccc3c2s1)[C@@H]1CCCO1", "0.1 to 0.5 µM"]
]}

Name the recorded IC50 for `CN(C(=O)OC(C)(C)C)[C@@H]1CCC[C@H](C(=O)Nc2nc3ccc4cc(F)ccc4c3s2)C1` .
1 to 20 µM

Name the recorded IC50 for `CC(=O)N1CCC[C@H]1C(=O)Nc1nc2ccc3cc(F)ccc3c2s1` .
1 to 20 µM

Name the recorded IC50 for `O=C(Nc1nc2ccc3cc(F)ccc3c2s1)[C@@H]1CCNC1` .
1 to 20 µM

Name the recorded IC50 for `O=C(Nc1nc2ccc3cc(F)ccc3c2s1)[C@H]1CCCO1` .
0.1 to 0.5 µM

Name the recorded IC50 for CC(=O)N1CCCC[C@H]1C(=O)Nc1nc2ccc3cc(F)ccc3c2s1 (single isomer, unassigned) [Compound 67] .
1 to 20 µM

Name the recorded IC50 for `O=C(Nc1nc2ccc3cc(F)ccc3c2s1)c1nncs1` .
1 to 20 µM

Name the recorded IC50 for `CC(C)(C)OC(=O)N1CCC(C(=O)Nc2nc3ccc4cc(F)ccc4c3s2)CC1` .
1 to 20 µM

Name the recorded IC50 for `CC(C)(C)OC(=O)N[C@H]1CCC[C@@H](C(=O)Nc2nc3ccc4cc(F)ccc4c3s2)C1` .
0.1 to 0.5 µM

Name the recorded IC50 for CN1CCC(C(=O)Nc2nc3ccc4cc(F)ccc4c3s2)C1 (stereo not drawn) [Compound 65] .
0.1 to 0.5 µM

Name the recorded IC50 for `O=C(Nc1nc2ccc3cc(F)ccc3c2s1)[C@H]1CCOC1` .
0.1 to 0.5 µM
